These entries and their values trace back to paper PMC7488488.

System: U251 cells
protocol.description: MTT cell proliferation assay
Assay type: cell-based
experimental.conditions: Homo sapiens, U-251, 24 h, read-out: Anti-proliferative activity IC50, U251
endpoint.name: IC50 (µM)
Answers are plain numbers, in µM.

# example entries with known answers
compound: CCOC(=O)[C@H]1Cc2c(cc([N+](=O)[O-])cc2[N+](=O)[O-])[C@@H](O)[C@@]12C(=O)Nc1ccc(Cl)cc12 [4d]
tested.system: U251 cells
unit.spec: µM
IC50: 17.8

compound: CCOC(=O)[C@H]1Cc2c(cc([N+](=O)[O-])cc2[N+](=O)[O-])[C@@H](O)[C@@]12C(=O)Nc1cccc(Br)c12 [4f]
tested.system: U251 cells
unit.spec: µM
IC50: 25.8

Now look at this entry.
Retrieve IC50 measured for CCOC(=O)[C@H]1Cc2c(cc([N+](=O)[O-])cc2[N+](=O)[O-])[C@@H](O)[C@@]12C(=O)Nc1ccc(F)cc12 [4b] and print it. 32.6
